Assay: protease stability score; higher = more stable; yeast display proteolysis, trypsin and chymotrypsin;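 further: relative to predicted unfolded state with 0 unfolded-like and 1 meaning tenfold more protease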
Quick rule for you: protease stability score at 0.8 or higher means Criterion met, lower means Criterion not met.

Take a look at these entries with their results.
INSERT INTO measurements (sequence_code, discrete_label) VALUES
  ('SEDERDAKRAEEEFKRHVETGDEKMLREMMDPHVRFEIGDKEFIGWNFAEKLHLDLIERIDHEELILRHINVVNGKVDSDVELRVHVDGVTIIVRTRIISKKIDGRWLIRSIIIH', 'Criterion not met'),
  ('SEEETHVKEAVKRSVDFLETGDERLFRELFDPNVRLIVNVGNKRVELHGWEEVVRWLREARLHRVILRTIRIQGDKAEVEGDVDGEINGRHDLHIIEWHFIVINGRFHSVSVRIE', 'Criterion met'),
  ('SEDEKIAQRLLDLLLESFITGDEQMDRELLDPNVKMEVGDKELHGREEALEWFTRVAKRVDHMRFTLTHMDIIDGRIIIQGRVEQFFNGRKVTTRYNLLVLKIDGRWRIEEIRYH', 'Criterion met');

Turning now to a further sequence:
Q. Is reported protease stability score greater than or equal to 0.8 here: DEDKKWVDEMIRLLLEYWRTGDEERIRQLADPNVRTHINGKEIHGMEIHLQYLREFMETFGVDHVELRIHHKDIQGDKIHLHVEIIYTVGDKEHRQEVHFRARKINGKWMIEHVEIK
A. Criterion met
